Test system: SW-620
Assay: Growth inhibition of human SW620 cells after 48 hrs by sulforhodamine B assay
Type: functional, cell-based
Details: SW-620, 48 h
pIC50: −log10 of the molar value.
Observed property: pIC50

1. CC(=O)Nc1cccc(-c2ccc(-c3ccnc(NC(=O)Nc4cc(C(F)(F)F)cc(C(F)(F)F)c4)n3)cn2)c1.Cl ... 5.64

###

Test system: SF-268
Experiment: Growth inhibition of human SF268 cells after 48 hrs by sulforhodamine B assay
Format: functional, cell-based
Conditions: SF-268, 48 h
# reported IC50; entries follow
Observed property: IC50 (µM)

1) CC(=O)c1ccccc1-c1ccc(-c2ccnc(NC(=O)Nc3cc(N4CCOCC4)cc(C(F)(F)F)c3)n2)cn1 ... 40.2
2) CC(=O)Nc1cccc(-c2ccc(-c3ccnc(NC(=O)Nc4cc(C(F)(F)F)cc(C(F)(F)F)c4)n3)cn2)c1.Cl ... 4.92

These data points were gathered from ChEMBL document CHEMBL1165943.
